test system: Rattus norvegicus; test: Biodistribution in lungs of immature female rat after 1 hr administration of 3 micro Ci (111 kBq) in the presence of (+E2); assay type: ADME, organism-based, Lung; settings: in vivo
Measurement label: ID/g (%)
Entry rule: numbers only, all in %.

-- ask What ID/g value was documented for this compound, C[C@@H]1Cc2c(ccc(O)c2F)[C@H]2CC[C@@]3(C)[C@@H](CC[C@@]3(O)/C=C/I)[C@H]12 ?
-- reply 1.86

-- ask Any idea what ID/g was measured for CO[C@H]1C[C@@]2(C)[C@@H](CC[C@@]2(O)/C=C/I)[C@@H]2CCc3cc(O)c(F)cc3[C@H]21 ?
-- reply 1.22

-- ask Reported ID/g, compound C[C@@H]1Cc2cc(O)c(F)cc2[C@H]2CC[C@@]3(C)[C@@H](CC[C@@]3(O)/C=C\I)[C@H]12 : ____
-- reply 0.42

-- ask Recorded ID/g for CO[C@H]1C[C@@]2(C)[C@@H](CC[C@@]2(O)/C=C\I)[C@@H]2CCc3c(ccc(O)c3F)[C@H]21 , please?
-- reply 0.95

-- ask Fill in the blank: the reported ID/g of C[C@]12CC[C@@H]3c4ccc(O)c(F)c4CC[C@H]3[C@@H]1CC[C@@]2(O)/C=C/I is ____.
-- reply 0.75

-- ask Query: ID/g; subject: C[C@]12CC[C@@H]3c4ccc(O)c(F)c4CC[C@H]3[C@@H]1CC[C@@]2(O)/C=C\I
-- reply 1.14

-- ask Returns the measured ID/g for the input compound. Input: C[C@]12CC[C@@H]3c4cc(F)c(O)cc4CC[C@H]3[C@@H]1CC[C@@]2(O)/C=C\I
-- reply 0.75

-- ask Fill in: ID/g of C[C@@H]1Cc2cc(O)c(F)cc2[C@H]2CC[C@@]3(C)[C@@H](CC[C@@]3(O)/C=C/I)[C@H]12 is ___
-- reply 0.53

-- ask Which ID/g reading was recorded for the compound C[C@]12CC[C@@H]3c4cc(F)c(O)cc4CC[C@H]3[C@@H]1CC[C@@]2(O)/C=C/I ?
-- reply 0.93

-- ask Consider the compound C[C@@H]1Cc2c(ccc(O)c2F)[C@H]2CC[C@@]3(C)[C@@H](CC[C@@]3(O)/C=C\I)[C@H]12 and give its measured ID/g.
-- reply 0.67

====

For each of the molecules below, state its ID/g.
tested on: Rattus norvegicus; test: Biodistribution in blood of immature female rat after 1 hr administration of 3 micro Ci (111 kBq) in the presence of (+E2); format: ADME, organism-based; conditions: in vivo
Expressed in %, but write only the number.

-- ask What ID/g value was documented for this molecule, C[C@]12CC[C@@H]3c4ccc(O)c(F)c4CC[C@H]3[C@@H]1CC[C@@]2(O)/C=C/I ?
-- reply 0.81

-- ask Could you share which ID/g value was measured for C[C@@H]1Cc2c(ccc(O)c2F)[C@H]2CC[C@@]3(C)[C@@H](CC[C@@]3(O)/C=C\I)[C@H]12 ?
-- reply 0.45

-- ask Look at this molecule and give its reported ID/g. C[C@@H]1Cc2c(ccc(O)c2F)[C@H]2CC[C@@]3(C)[C@@H](CC[C@@]3(O)/C=C/I)[C@H]12
-- reply 0.44

-- ask Which ID/g value belongs to C[C@]12CC[C@@H]3c4cc(F)c(O)cc4CC[C@H]3[C@@H]1CC[C@@]2(O)/C=C/I ?
-- reply 0.49

-- ask Could you share which ID/g value was measured for C[C@]12CC[C@@H]3c4ccc(O)c(F)c4CC[C@H]3[C@@H]1CC[C@@]2(O)/C=C\I ?
-- reply 0.55

-- ask Give the measured ID/g of C[C@@H]1Cc2cc(O)c(F)cc2[C@H]2CC[C@@]3(C)[C@@H](CC[C@@]3(O)/C=C/I)[C@H]12 .
-- reply 0.29

-- ask Entry CO[C@H]1C[C@@]2(C)[C@@H](CC[C@@]2(O)/C=C/I)[C@@H]2CCc3cc(O)c(F)cc3[C@H]21 has what ID/g?
-- reply 0.51

-- ask ID/g for C[C@@H]1Cc2cc(O)c(F)cc2[C@H]2CC[C@@]3(C)[C@@H](CC[C@@]3(O)/C=C\I)[C@H]12 ?
-- reply 0.32

-- ask Record request: ID/g value, item C[C@]12CC[C@@H]3c4cc(F)c(O)cc4CC[C@H]3[C@@H]1CC[C@@]2(O)/C=C\I
-- reply 0.58
